# Test system: Calu-3
# Experiment Summary: cell viability relative to DMSO; higher = less toxic
# Experimental Context: 72 h; 10000 nM
// reported cell viability for each item listed
// note: answer is a bare numeric in %

# annotated cases, reported cell viability shown
>  <Molecule>
Nc1nc(=O)n([C@@H]2O[C@H](CO)[C@@H](O)[C@@H]2F)cc1I [fiacitabine]

>  <Unit Abbreviation>
%

>  <cell viability>
96

$$$$
>  <Molecule>
CCC(=O)NC1CCc2cccc(OC)c2C1 (centres undefined) [8-M-PDOT]

>  <Unit Abbreviation>
%

>  <cell viability>
112

$$$$
>  <Molecule>
CNC(=O)c1ccc(N2C(=S)N(c3cnc(C#N)c(C(F)(F)F)c3)C(=O)C23CCC3)cc1F [apalutamide]

>  <Unit Abbreviation>
%

>  <cell viability>
97.1

$$$$

Exercise: What value of cell viability has been reported for the following molecule? C[C@]12CC[C@H]3[C@@H](CCC4=CC(=O)CC[C@@]43C)[C@@H]1CC[C@@H]2O [TESTOSTERONE]
Key: 92.3

Exercise: What value of cell viability has been reported for the following molecule? "CCOc1ccn(-c2ccc(F)cc2)c(=O)c1C(=O)Nc1ccc(Oc2ccnc(N)c2Cl)c(F)c1"
Key: 94

Exercise: What value of cell viability has been reported for the following molecule? Cc1c2oc3c(C)ccc(C(=O)N[C@@H]4C(=O)N[C@H](C(C)C)C(=O)N5CCC[C@H]5C(=O)N(C)CC(=O)N(C)[C@@H](C(C)C)C(=O)O[C@@H]4C)c3nc-2c(C(=O)N[C@@H]2C(=O)N[C@H](C(C)C)C(=O)N3CCC[C@H]3C(=O)N(C)CC(=O)N(C)[C@@H](C(C)C)C(=O)O[C@@H]2C)c(N)c1=O [dactinomycin]
Key: 37.4

Exercise: What value of cell viability has been reported for the following molecule? COc1ccc(CNCc2cccc3ccccc23)cc1 [ML133]
Key: 94.6

Exercise: What value of cell viability has been reported for the following molecule? Fc1ccc(Cn2c(NC3CCNCC3)nc3ccccc32)cc1 [tecastemizole]
Key: 102

Exercise: What value of cell viability has been reported for the following molecule? CCCOc1ccc2c(c1)CC[C@@H]1[C@@H]2CC[C@]2(C)[C@@H](OC)CC[C@@H]12 [promestriene]
Key: 104

Exercise: What value of cell viability has been reported for the following molecule? "CN(C(=O)CN1C(=O)COc2cc(Cl)c(Cl)cc21)[C@@H](CN1CCCC1)c1ccc(-c2cccc(C(N)=O)c2)cc1"
Key: 7

Exercise: What value of cell viability has been reported for the following molecule? N#C/C(=C\c1ccc(O)c(O)c1)C(=O)NCCCCc1ccccc1 [AG-556]
Key: 98.7

Exercise: What value of cell viability has been reported for the following molecule? COC(=O)C1=C(C)NC(C)=C(C(=O)OCCN(C)Cc2ccccc2)C1c1cccc([N+](=O)[O-])c1 (centres undefined) [nicardipine]
Key: 90.2

Exercise: What value of cell viability has been reported for the following molecule? CCC(CO)(C(=O)OC1CC2CCC(C1)[N+]2(C)C)c1ccccc1 (centres undefined) [troventol]
Key: 93.9

Exercise: What value of cell viability has been reported for the following molecule? O=c1c(-c2ccccc2)c1-c1ccccc1 [diphencyprone]
Key: 122
